tested on: K4 kissing-loop RNA reporter; assay: apparent KD of K4 kissing-loop reporter; higher = weaker reporter binding; settings: Eterna round: R107; input ligand: FMN 200 uM;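 also: bound reporter read as fluorescence of individual clusters on recovered sequencing chips by microscopy, with normalized cluster intensities fitted with a binding model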
Binary call on apparent KD of K4 kissing-loop reporter: yes from 200 nM upward, no beneath that.

| SEQUENCE_ENTRY | CLASS |
| --- | --- |
| CGCAGUGAUGUUGCUAUAUUUCUUGAUUAACGAGGACCGGUACGGCCGCCACUCGAUUUCUCUCUAAUCCACUAUGUUGUUUAGA [JR_SSTryptoA_Sub002] | yes |
| AGAGUUUUAUGAGGAUAUGAGAUAGUUAAUGAGUGAGUUAUAGUGUAGUUUGUUUAGUGAUGUUAUUUAGAAGGCGUGAGUGAUG [ssxsmullin] | no |
| ACAUAGGAUGGAAGGAGCGCUCGUCAGUCCUGCGAGUGAUGUUCGUGGGUAAAUAUUCGCGAGCAGGUAGGUCGCCAUCUUGAAA [Vedi] | no |
| CCUGCAGCUGUUACCGAGGGAUGCUACGGACGAGGACCGGUACGGCCGCCACUCGCCAGUGAUGUUGGUGAGGGAGGACGUUCCU [Georte] | no |
| CAUACGCAUGGAGGAUAUGAGAUUUCUCAUAUUAUUUAAUAUUCUCAGUGAUGUUGAGAUAUAAACUCAGAAGGCCAUGUGUAUG [Ex FMN B 2] | yes |
| AAAUAGAUCAGUCAACCAGUGAUGUUGGAAGGAGCGUGCGAAAGCACAGGUAGGUCGCCAUAAUAAAAUUGGCUGAUCAAAAUAA | yes |
| AGACUACCACACUGUCAAUAGACAGUGAACUAGGAUAUGCUGAUAAGCAGAAGGAGUGAUGUUCCCAGGUAGUCAAUAAAAUAAU [FmnAX 13 C66] | no |
| CCUAUCUCUUACGAUACCAGUCAAUGAUAUUUUAUCAAUGCCCUCACCGAGUGAUGUUCGGACCCUUGGCAGCGUAUGGGAUAGG [kjnjmullin] | yes |
